Please go through the items and note down their furin cleavage Z-score.
# Test Target: furin, P09958;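 also: purified furin at 1:10 enzyme:substrate in 50 mM HEPES pH 7.5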
# Sequence (P09958 whole entry): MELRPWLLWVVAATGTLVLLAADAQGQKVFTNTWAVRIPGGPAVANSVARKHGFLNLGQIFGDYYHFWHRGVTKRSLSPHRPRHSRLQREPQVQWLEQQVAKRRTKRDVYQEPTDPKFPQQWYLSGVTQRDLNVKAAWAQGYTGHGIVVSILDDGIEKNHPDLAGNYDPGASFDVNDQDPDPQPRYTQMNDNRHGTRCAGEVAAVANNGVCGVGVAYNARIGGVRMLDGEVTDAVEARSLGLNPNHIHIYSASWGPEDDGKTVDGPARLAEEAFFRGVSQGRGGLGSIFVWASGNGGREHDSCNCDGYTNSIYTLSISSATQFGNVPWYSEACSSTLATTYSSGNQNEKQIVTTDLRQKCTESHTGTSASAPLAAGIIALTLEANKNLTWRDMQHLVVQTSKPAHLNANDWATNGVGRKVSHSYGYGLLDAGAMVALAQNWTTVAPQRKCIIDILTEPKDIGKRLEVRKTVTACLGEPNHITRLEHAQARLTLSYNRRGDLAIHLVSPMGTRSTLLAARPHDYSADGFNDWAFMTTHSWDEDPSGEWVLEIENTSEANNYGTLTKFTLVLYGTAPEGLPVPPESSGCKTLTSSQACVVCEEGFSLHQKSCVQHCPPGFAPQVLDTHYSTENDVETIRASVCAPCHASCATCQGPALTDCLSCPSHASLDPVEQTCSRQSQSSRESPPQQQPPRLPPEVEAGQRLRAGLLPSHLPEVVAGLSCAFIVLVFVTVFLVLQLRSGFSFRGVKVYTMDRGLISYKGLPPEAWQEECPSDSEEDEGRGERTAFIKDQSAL
# Assay Text: furin cleavage Z-score vs untreated control; higher = more cleavage, active = 3.5 or more, inactive = 1 or less, 8 variable residues between constant flanks
# Experimental Conditions: 30 min
Some of the results follow. The hit rate among all sequences tested is not known here.
Numbers only.

- Entry Sequence: "CASSASQLSAAGNASASA [HC1261]"
  Experimental Endpoint: "furin cleavage Z-score"
  Readout Value: -1.07
- Entry Sequence: "CAMKKRDLSAAGNASASA [FS-2872]"
  Experimental Endpoint: "furin cleavage Z-score"
  Readout Value: 4.84
- Entry Sequence: "CAWETARHTPAGNASASA [HC1569]"
  Experimental Endpoint: "furin cleavage Z-score"
  Readout Value: -0.633
- Entry Sequence: "CARKKRSTSAAGNASASA [FU2]"
  Experimental Endpoint: "furin cleavage Z-score"
  Readout Value: 8.12

Hi there! I need furin cleavage Z-score for each item below, if you can.
1. CADTDVFVLNAGNASASA [HC427]
2. CARKGKSSSAAGNASASA [FS-1725]
3. CAMEECSQHDAGNASASA [HC1771]

Result:
1. -1.25
2. -0.784
3. 0.222

Hi there! I need furin cleavage Z-score for each item below, if you can.
1. CALIRLKPTLAGNASASA [HC966]
2. CAMTTDNLKCAGNASASA [HC1213]
3. CAQTLLFNILAGNASASA [HC1063]

Result:
1: 0.404; 2: 0.0584; 3: 0.404

All figures here come from the supplement of paper PMC3545927.
